- target entity: Drosophila Slowpoke calcium-dependent potassium channel (dSlo) (Drosophila melanogaster)
- Sequence (Q03720 whole entry): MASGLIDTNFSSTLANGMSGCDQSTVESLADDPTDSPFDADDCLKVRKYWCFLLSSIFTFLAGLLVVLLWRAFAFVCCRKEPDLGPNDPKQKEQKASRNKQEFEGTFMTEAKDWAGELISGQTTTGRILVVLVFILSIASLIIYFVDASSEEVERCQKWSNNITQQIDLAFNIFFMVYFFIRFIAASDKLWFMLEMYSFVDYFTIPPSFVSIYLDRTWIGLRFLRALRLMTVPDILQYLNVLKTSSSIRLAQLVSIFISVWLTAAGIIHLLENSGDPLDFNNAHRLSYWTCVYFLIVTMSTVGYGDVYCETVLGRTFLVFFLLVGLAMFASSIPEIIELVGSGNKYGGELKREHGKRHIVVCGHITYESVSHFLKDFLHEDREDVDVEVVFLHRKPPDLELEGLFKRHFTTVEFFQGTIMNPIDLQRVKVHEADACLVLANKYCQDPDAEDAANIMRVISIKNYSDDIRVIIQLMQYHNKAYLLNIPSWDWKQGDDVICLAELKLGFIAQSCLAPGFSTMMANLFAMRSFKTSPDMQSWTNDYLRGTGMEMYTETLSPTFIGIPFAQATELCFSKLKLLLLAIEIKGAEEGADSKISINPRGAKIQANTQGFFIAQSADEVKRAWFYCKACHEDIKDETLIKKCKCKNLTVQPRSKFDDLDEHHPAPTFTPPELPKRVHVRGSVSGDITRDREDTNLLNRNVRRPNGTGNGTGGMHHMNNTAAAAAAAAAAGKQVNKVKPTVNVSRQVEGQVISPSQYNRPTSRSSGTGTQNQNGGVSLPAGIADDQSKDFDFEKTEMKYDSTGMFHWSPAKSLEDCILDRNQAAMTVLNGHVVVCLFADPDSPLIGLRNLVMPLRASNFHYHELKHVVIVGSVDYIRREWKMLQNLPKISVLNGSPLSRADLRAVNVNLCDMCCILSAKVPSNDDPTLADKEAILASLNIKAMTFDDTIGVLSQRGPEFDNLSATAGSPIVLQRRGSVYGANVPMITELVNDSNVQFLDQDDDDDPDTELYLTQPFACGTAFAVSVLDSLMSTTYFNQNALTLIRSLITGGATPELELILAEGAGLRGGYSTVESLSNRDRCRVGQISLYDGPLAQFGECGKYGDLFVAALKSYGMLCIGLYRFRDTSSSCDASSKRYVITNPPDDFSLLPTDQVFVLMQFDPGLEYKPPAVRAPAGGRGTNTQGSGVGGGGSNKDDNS
- method summary: Inside-out patch recording of dSlo current with peptide on the cytoplasmic side
- Assay type: cell-based
Ends that are not written are not given here.
measure: Kd (µM)
Express your answer in µM, writing the number without its unit.

Given MFKFNK [MFKFNK] , state its recorded Kd.
162

###

- target entity: Drosophila Slowpoke calcium-dependent potassium channel (dSlo) (Drosophila melanogaster)
- method summary: Inside-out patch recording of dSlo current with peptide on the cytoplasmic side
- Assay type: cell-based
Ends that are not written are not given here.
measure: pIC50
The scale used: pIC50 is minus the common logarithm of the concentration in molar units.

Given MFKFNK [MFKFNK] , state its recorded pIC50.
4.51
